tested on: H1299 cells; test: cell viability assay; format: cell-based; conditions: Homo sapiens, NCI-H1299
Observed property: IC50 (µM)
Give the value in µM but do not write µM after it.

Tell me its IC50 on H1299 cells: CNC(=O)c1cccc2cc(Oc3ccnc4cc(OCC5(N)CC5)c(OC)cc34)ccc12 10

src = paper PMC5167242
